Study the reported Ki values for Bcl-2-like protein 1 (Homo sapiens) given below; they originate from different publications.
One number for each entry, in µM.

Example cases with answers are listed next.
O=C(NS(=O)(=O)c1ccc(Cl)c([N+](=O)[O-])c1)[C@H](Cc1ccccc1)N1C(=O)N[C@@H](Cc2ccc(-c3ccc(Cl)cc3)cc2)C1=O : 6.1
Cc1ccccc1/C=C/C(=O)Nc1ccc(C(=O)NS(=O)(=O)c2ccc(NCCSc3ccccc3)c([N+](=O)[O-])c2)cc1 : 0.21

Now look at this one.
QUERY: Fill in the recorded Ki for this compound, with Bcl-2-like protein 1 (Homo sapiens) as test system: "Cc1cc(OCCCc2c3n(c4c(-c5c(C)nn(C)c5C)c(Cl)ccc24)CCCN(c2cn(C)c4ccc(C(=O)O)cc24)C3=O)cc(C)c1Cl"
Sequence (Q07817 whole entry): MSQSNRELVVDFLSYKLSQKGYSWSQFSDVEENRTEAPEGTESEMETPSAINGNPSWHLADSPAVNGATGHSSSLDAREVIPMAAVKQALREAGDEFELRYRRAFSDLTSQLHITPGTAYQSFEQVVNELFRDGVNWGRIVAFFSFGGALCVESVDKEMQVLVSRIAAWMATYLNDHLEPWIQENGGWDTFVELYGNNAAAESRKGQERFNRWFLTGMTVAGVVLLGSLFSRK
RESULT: 26

====

Study the reported pKi values for Bcl-2-like protein 1 (Homo sapiens) given below; they originate from different publications.
Answers are plain numbers, as −log10 of the molar value.

Example cases with answers are listed next.
COc1ccccc1CC1(OC)CCN(c2ccc(C(=O)NS(=O)(=O)c3ccc(N[C@H](CCN(C)C)CSc4ccccc4)c([N+](=O)[O-])c3)cc2)CC1 : 8.96
O=C(/C=C/c1ccccc1)Nc1ccc(C(=O)NS(=O)(=O)c2ccc(NCCSc3ccccc3)c([N+](=O)[O-])c2)cc1 : 6.85
Cc1cc(Oc2ccc(Cn3nc4ccc(Cl)cc4c3C(=O)NS(=O)(=O)c3ccc(N4CCOCC4)c([N+](=O)[O-])c3)cc2)cc(C)c1Cl : 5.10
Cc1ccc(S(=O)(=O)NC(=O)[C@H](Cc2ccccc2)N2C(=O)/C(=C/c3ccc(-c4ccccc4)cc3)SC2=S)cc1 : 6.24
CN(C)CC[C@H](CSc1ccccc1)Nc1ccc(S(=O)(=O)NC(=O)c2ccc(N3CCN(Cc4ccccc4)CC3)cc2)cc1[N+](=O)[O-] : 8.59

Dear colleague, could you send me pKi for each of the items below? Thanks.
1. CCCc1ccc2c(c1)C(C(C#N)C(=O)OCC)C(C(=O)OCC)=C(N)O2 (stereo not given)
2. Cc1cc(Oc2ccc(S(=O)(=O)N3CCCc4cc(C(=O)O)ccc43)cc2)cc(C)c1Cl
3. Oc1cccc(CN2CCN(c3ncc(Cc4ccccc4)cn3)CC2)c1

RESULT:
[4.15, 5.45, 6.28]

====

Study the reported Ki values for Bcl-2-like protein 1 (Homo sapiens) given below; they originate from different publications.
Give bare numbers, in nM.

Example cases with answers are listed next.
O=C(Cc1ccccc1)Nc1ccc(C(=O)NS(=O)(=O)c2ccc(NCCSc3ccccc3)c([N+](=O)[O-])c2)cc1 : 450
CCc1sc2ncnc(NC(CO)C(=O)O)c2c1-c1cccc(Oc2ccc(F)cc2)c1 (racemic) : 87000
COc1ccccc1/C=C/C(=O)Nc1ccc(C(=O)NS(=O)(=O)c2ccc(NCCSc3ccccc3)c([N+](=O)[O-])c2)cc1 : 90
CC1(C)CCC(CN2CCN(c3ccc(C(=O)NS(=O)(=O)c4ccc(N[C@H](CCN5CCOCC5)CSc5ccccc5)c(S(=O)(=O)C(F)(F)Cl)c4)cc3)CC2)=C(c2ccc(Cl)cc2)C1 : 0.463
O=C(NS(=O)(=O)c1ccc(NCCSc2ccccc2)c([N+](=O)[O-])c1)c1ccc(NC(=O)c2ccccc2F)cc1 : 1710
CCc1sc2ncnc(N[C@@H](C(=O)O)c3ccccc3)c2c1-c1cccc(O)c1 : 319000
COC1(CC(C)C)CCN(c2ccc(C(=O)NS(=O)(=O)c3ccc(N[C@H](CCN(C)C)CSc4ccccc4)c([N+](=O)[O-])c3)cc2)CC1 : 6.1
N#CC1=C(C#N)c2ccc(Sc3ccc(Br)cc3)c3cccc(c23)C1=O : 750

Dear colleague, could you send me Ki for each of the items below? Thanks.
1. CCOC(=O)C1=C(N)Oc2ccc(-c3ccccc3)cc2C1C(C#N)C(=O)OCC (stereo not given)
2. Cc1cc(Oc2ccc(S(=O)(=O)N(CC(C)C)c3ccc(C(=O)O)c(O)c3)cc2)cc(C)c1Cl

RESULT:
[52900, 1630]

====

Study the reported Ki values for Bcl-2-like protein 1 (Homo sapiens, UniProt Q07817) given below; they originate from different publications.
Give bare numbers, in µM.

Example cases with answers are listed next.
C[C@@H](Nc1ncnc2scc(-c3cccc(O)c3)c12)C(=O)O : 287
CN(C)CC[C@H](CSc1ccccc1)Nc1ccc(S(N)(=O)=O)cc1[N+](=O)[O-] : 75
CC(=O)N[C@H](C(=O)Nc1ccc(C(=O)NS(=O)(=O)c2ccc(NCCSc3ccccc3)c([N+](=O)[O-])c2)cc1)C(C)C : 16.4

Dear colleague, could you send me Ki for each of the items below? Thanks.
1. Cc1cc(Oc2ccc(Cn3nc4ccc(Cl)cc4c3C(=O)NS(=O)(=O)c3ccc([N+](=O)[O-])c(NCc4ccn(C)n4)c3)cc2)cc(C)c1Cl
2. O=C(O)c1[nH]c2cc(Cl)ccc2c1CCCOc1cccc2ccccc12
3. Cc1c(C(=O)NCCCN2CCN(C)CC2)c(-c2ccccc2)c(-c2ccc(Cl)cc2)n1C
4. Cc1ccc(/C=C/C(=O)Nc2ccc(C(=O)NS(=O)(=O)c3ccc(NCCSc4ccccc4)c([N+](=O)[O-])c3)cc2)cc1
5. N#Cc1c(-c2ccc3c(c2)OCO3)cc(-c2ccccc2O)[nH]c1=O
6. Cc1cc(OCCCc2c3n(c4c(-c5c(C)nn(C)c5C)c(Cl)ccc24)CCCN(c2cn(C)c4c(C(=O)O)cccc24)C3=O)cc(C)c1Cl

RESULT:
1. 7.41
2. 6.8
3. 88
4. 0.13
5. 5.1
6. 21

====

Study the reported Ki values for UniProtKB Q07817 given below; they originate from different publications.

Example cases with answers are listed next.
CC(C)CC(NC(=O)c1ccc(C(=O)N[C@@H](CC(C)C)C(=O)O)c(Oc2ccccc2)c1)C(=O)O (stereo partly specified) : > 30000 nM
COC1(Cc2ccccc2Cl)CCN(c2ccc(C(=O)NS(=O)(=O)c3ccc(N[C@H](CCN(C)C)CSc4ccccc4)c([N+](=O)[O-])c3)cc2)CC1 : < 0.5 nM
COCCNC(=O)[C@H]1[C@H](CO)[C@H]2Cn3c(cccc3=O)[C@@H]1N2c1nc(-c2ccc(Cl)cc2)c(-c2ccccc2)s1 : > 100000 nM

Dear colleague, could you send me Ki for each of the items below? Thanks.
1. Cc1c(C(=O)O)c(-c2cccc(N3CCN(c4ccc(NS(=O)(=O)c5ccc(N[C@H](CCN(C)C)CSc6ccccc6)c([N+](=O)[O-])c5)cc4)CC3)c2)c(-c2ccc(Cl)cc2)n1C(C)C
2. Cc1cc(-c2cccc(N3CCN(c4ccc(NS(=O)(=O)c5ccc(N[C@H](CCN(C)C)CSc6ccccc6)c([N+](=O)[O-])c5)cc4)CC3)c2)c(-c2ccc(Cl)cc2)n1C
3. Cc1cc(Oc2ccc(Cn3nc4ccc(Cl)cc4c3C(=O)NS(=O)(=O)c3ccc(NCCc4ccco4)c([N+](=O)[O-])c3)cc2)cc(C)c1Cl

RESULT:
["< 1 nM", "1.2 nM", "3400 nM"]

====

Study the reported pKi values for Bcl-2-like protein 1 (Homo sapiens) given below; they originate from different publications.
Give bare numbers, as −log10 of the molar value.

Dear colleague, could you send me pKi for each of the items below? Thanks.
1. COC1(CC2CCCCC2)CCN(c2ccc(C(=O)NS(=O)(=O)c3ccc(N[C@H](CCN(C)C)CSc4ccccc4)c([N+](=O)[O-])c3)cc2)CC1
2. CN(C)CCNC(=O)[C@@H]1[C@@H](CO)[C@@H]2Cn3c(cccc3=O)[C@H]1N2c1nc(-c2ccc(Cl)cc2)c(-c2ccccc2)s1
3. Cc1cc(OCCCc2c3n(c4c(-c5c(C)nn(C)c5C)c(Cl)ccc24)[C@H](C)CN(c2cccc4c(C(=O)O)cccc24)C3=O)cc(C)c1Cl

RESULT:
1: 9.10; 2: 5.24; 3: 4.59

====

Study the reported pKi values for UniProt Q07817 given below; they originate from different publications.
Answers are plain numbers, as −log10 of the molar value.

COC1(Cc2ccc(Cl)cc2)CCN(c2ccc(C(=O)NS(=O)(=O)c3ccc(N[C@H](CCN(C)C)CSc4ccccc4)c([N+](=O)[O-])c3)cc2)CC1 : 9.05
CN(C)CCNC(=O)[C@H]1[C@H](CO)[C@H]2Cn3c(cccc3=O)[C@@H]1N2c1nc(-c2ccc(Cl)cc2)c(-c2ccccc2)s1 : 5.18
CCOC(=O)C1=C(N)Oc2ccccc2C1C(C#N)C(=O)OCC (centres undefined) : 3.24
Cc1cc(OCCCc2c(C(=O)NS(=O)(=O)c3cccc(CNC(=O)c4cccc(C(F)(F)F)c4)c3)[nH]c3c(-c4c(C)nn(C)c4C)c(Cl)ccc23)cc(C)c1Cl : 4.89

Now look at this one.
QUERY: Fill in the recorded pKi for this molecule, with UniProt Q07817 as test system: "COC1(Cc2ccccc2F)CCN(c2ccc(C(=O)NS(=O)(=O)c3ccc(N[C@H](CCN(C)C)CSc4ccccc4)c([N+](=O)[O-])c3)cc2)CC1"
RESULT: 9.05
